Attribute: Kd
# experimental.target: T1, soluble human ILT2-ECD (human, UniProt Q8NHL6 24-461)
# T1 construct: also called LILRB1 extracellular domain
# T1 sequence (Q8NHL6 24-461): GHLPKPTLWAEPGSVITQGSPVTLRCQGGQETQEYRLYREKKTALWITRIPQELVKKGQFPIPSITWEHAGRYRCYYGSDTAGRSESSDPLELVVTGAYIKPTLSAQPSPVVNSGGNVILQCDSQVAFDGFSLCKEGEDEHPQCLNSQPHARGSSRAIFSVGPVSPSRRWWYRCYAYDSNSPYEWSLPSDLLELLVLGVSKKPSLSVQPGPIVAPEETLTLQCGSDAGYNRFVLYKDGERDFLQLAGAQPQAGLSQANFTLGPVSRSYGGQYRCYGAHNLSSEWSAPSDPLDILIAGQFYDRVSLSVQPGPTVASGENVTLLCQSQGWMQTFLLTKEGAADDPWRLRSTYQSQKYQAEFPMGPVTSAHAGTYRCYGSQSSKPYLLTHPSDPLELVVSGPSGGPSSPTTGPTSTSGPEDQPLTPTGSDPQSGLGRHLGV
# assay.details: SPR (Biacore), antibody captured on Protein A chip, soluble ILT-ECD injected (1.6-200 nM), 25 C
Answer in nM, number only, no unit symbol.

// below: answered binders
binder | value.kind | result.units | obs.value
anti-ILT2 antibody 27F9 (antibody, V domains shown, Mouse hybridoma antibody; also called clone 27F9; anti-ILT2 (27F9)) VH: QVQLKESGPGLVAPSQSLSITCTVSGFSLTNYGVSWVRQPPGKGLEWLGIIWGDGSTNYHSALISRLSISKDNSKSQVFLKLNSLQADDTATYYCAKPNWDTYAMDFWGQGTSVTVSS VL: DIQMTQTTSSLSASLGDRVTISCRASQDISNFLNWYQQKPDGTVKLLIYCTSKLHSGVPSRFSGSGSETDYSLTISNLEQEDIATYFCQQGNTLPPTFGGGTKLEII | Kd | nM | 0.26
anti-ILT2/ILT4 antibody 73D1 (antibody, V domains shown, Mouse hybridoma antibody; Shares its light chain variable region with 73C4) VH: AVQLQQSGPELVKPGASVKISCKASGYTFTDYYINWVKQSHGKSLQWIGNVNPNDGGTTYNQKFKGKATLTVDKSSSTAYMELRSLTSEDSAVYYCARREIYFYGTIYYYAMDYWGQGTSVTVSS VL: DIVLTQSPASLAVSLGQRATISCRASESVDYYGNSFMYWYQQKPGRPPNLLIYFASNLESGVPARFSGSGSRTDFTLTIDPVEADDAATYYCQQNNEDPWTFGGGTKLEIK | Kd | nM | 1.2
anti-ILT2/ILT4 antibody 47H6 (antibody, V domains shown, Mouse hybridoma antibody) VH: EVQLQQSGPELVKPGASVKISCKASGYTFTDYYMNWVKQSHGKSLEWIGDFNPNNGGTTYNQKFEGKATLTVDKSSNTAYMDLRSLTSEDSAVYYCARGRFYYGSLYSFDYWGQGTTLTVSS VL: DIQMTQSPASLSASVGETVTITCRASGNIHNYLAWYQQKQGKSPHLLVYNAKTLADGVPSRFSGSGSGTQYSLKINNLQPEDFGSYYCQHFWTSITFGAGTKLDLK | Kd | nM | 2.1

The value of Kd measured for the binder anti-ILT2/ILT4 antibody 51A1 (antibody, V domains shown, Mouse hybridoma antibody) VH: EVQLVESGGGLVQPKGSLKLSCAASGFTFNTYAMHWVRQAPGKGLEWVARIRSKSSNYATYYADSVKDRFTISRDDSQSMLYLQMNNLKTEDTAMYYCVRDGIYYYGTMYYYAMDYWGQGTSVTVSS VL: NIVLTQSPASLAVSLGQRATISCRASESVDYYGNSFMYWYQQKPGQPPKLLIYFASNLESGVPARFSGSGSRTDFTLTIDPVEAADAASYYCQQNNEDPWTFGGGTKLEIK turned out to be 5.8
